Entry source: patent US9629822B2

Emax values for the molecules below.
Target: US28 receptor (Human cytomegalovirus)
Construct: expressed in transfected cells; host or cells: HEK 293T cells, transiently transfected
Sequence (P69332 whole entry): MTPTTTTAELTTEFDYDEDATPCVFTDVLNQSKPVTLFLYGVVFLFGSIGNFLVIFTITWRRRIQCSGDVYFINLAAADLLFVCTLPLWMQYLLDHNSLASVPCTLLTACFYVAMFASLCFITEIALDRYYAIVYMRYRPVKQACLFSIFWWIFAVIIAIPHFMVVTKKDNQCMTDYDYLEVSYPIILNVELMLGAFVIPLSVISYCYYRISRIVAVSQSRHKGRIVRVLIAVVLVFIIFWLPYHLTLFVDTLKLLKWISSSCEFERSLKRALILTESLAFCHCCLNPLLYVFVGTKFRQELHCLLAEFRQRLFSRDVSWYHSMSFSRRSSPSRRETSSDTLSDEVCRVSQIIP
Test: PathDetect trans Elk1 luciferase reporter gene assay in US28-transfected 293T HEK cells
Type: cell-based, Human Cytomegalovirus (HCMV)
Conditions: read-out: Efficacy(%), maximum intrinsic activity from dose-response curve; negative = inverse agonism
Description: Having generated a homologous series of chalcones and flavones, their ability to interact with the US28 receptor in human embryonic kidney (HEK) cells was investigated using an Elk-1 gene reporter assay (FIG. 2). […] 1050 values of the homologous series were also determined in Chinese hamster ovary (CHO) cells in order to assess the relative toxicities of each member of the series in a different cell line (see Table 1). […]
measurement-label: Emax (%)

| molecule | measured |
| --- | --- |
| CCOc1ccc(Cl)cc1-c1oc2ccccc2c(=O)c1O | -41 |
| COc1ccccc1/C=C/C(=O)c1ccccc1O | 67 |
| COc1ccc(Br)cc1-c1cc(=O)c2ccccc2o1 [Compound 11d] | -55 |
| COc1ccccc1-c1oc2ccccc2c(=O)c1O | -19 |
| COc1ccc(Br)cc1-c1cc(=O)c2c(OCc3ccccc3)cccc2o1 [Compound 11b] | -89 |
